- Test system: c-Myc
- Method summary: c-Myc ELISA assay protocol in 22RV-1 cells
- Format: cell-based, human
- Test conditions: 18 h, read-out: cMyc IC50
Measurement type: IC50

1) Cc1sc2c(c1C)C(c1ccc(Cl)cc1)=N[C@@H](CC(=O)NCCOCCNc1cccc3nc(C)n(C4CCC(=O)NC4=O)c(=O)c13)c1nnc(C)n1-2 (some centres unmarked)    > 50 nM

# IC50 lookup, item Cc1sc2c(c1C)C(c1ccc(Cl)cc1)=N[C@@H](CC(=O)Nc1ccc(OCCOCCOCCNc3cccc4nc(C)n(C5CCC(=O)NC5=O)c(=O)c34)cc1)c1nnc(C)n1-2 (some centres unmarked)
< 50 nM

What IC50 value was documented for this molecule, Cc1sc2c(c1C)C(c1ccc(Cl)cc1)=N[C@@H](CC(=O)N[C@@H](C)c1ccc(-c3ncc(OCCOCCNc4cccc5c4C(=O)N(C4CCC(=O)NC4=O)C5=O)cn3)cc1)c1nnc(C)n1-2 (some centres unmarked) ?
< 50 nM

Which IC50 is listed for Cc1sc2c(c1C)C(c1ccc(Cl)cc1)=N[C@@H](CC(=O)N[C@@H](C)c1ccc(OCCCCNc3cccc4c3C(=O)N(C3CCC(=O)NC3=O)C4=O)cc1)c1nnc(C)n1-2 (some centres unmarked) ?
> 50 nM

Looking for the measured IC50 of Cc1sc2c(c1C)C(c1ccc(Cl)cc1)=N[C@@H](CC(=O)NCCCCCNc1cccc3c1CN(C1CCC(=O)NC1=O)C3=O)c1nnc(C)n1-2 (some centres unmarked) , can you help?
< 50 nM
